- Tested on: OVCAR-5 ovarian
- EXPERIMENT NOTES: NCI-60 one-dose screen, 48 h (100 = growth as untreated, 0 = no growth, -100 = all killed)
- TEST SETTINGS: 10 µM
Compounds without any hit were thinned out: in the full panel of roughly 83,000, 20% have a hit.
Measured growth by item
Quick note: give the figure in %, leave out the unit.

Here are 4 molecules together with their reported answers.
Brc1ccc(/C=C/c2n(Cc3ccc4ccccc4c3)c3ccccc3[n+]2Cc2ccc3ccccc3c2)cc1 : -91.1
COc1cc(/C=C/C(=O)c2ccc(C(F)(F)F)cc2)ccc1Oc1nc(Nc2ccc(F)cc2)nc(N(C)C)n1 : 92.7
Cc1noc2c(Cc3ccc([N+](=O)[O-])cc3)nn(CC(=O)N/N=C/c3ccc(Cl)cc3)c(=O)c12 : 73.7
N#Cc1c(NC(=O)c2ccc(C(F)(F)F)cc2)sc2c1CCC(O)=C2 : 82.8

Query string: Please look up its growth: Cc1ccc(CNC(=O)Cc2ccc3c(c2)CN(C2CCC(=O)NC2=O)C3=O)cc1 (centres undefined)
Result string: 29.5

Query string: Please look up its growth: O=C(Nc1ccc(OCC(=O)c2ccccc2)cc1)Nc1ccc(Cl)c(C(F)(F)F)c1
Result string: 35.8

Query string: Please look up its growth: Clc1ccc2c(N/N=C/c3c[nH]c4ccc(Br)cc34)ccnc2c1
Result string: -66.5

Query string: Please look up its growth: C/C(=C\CSc1ccccc1C(=O)O)CCCC(C)CCCC(C)CCCC(C)C (centres undefined)
Result string: 115

Query string: Please look up its growth: CN1C(=O)N(C)C2SC(N/N=C/c3ccccc3)=NC21 (centres undefined)
Result string: 94.4

* * *

Measured growth by item
- System: MALME-3M melanoma
- EXPERIMENT NOTES: NCI-60 one-dose screen, 48 h (100 = growth as untreated, 0 = no growth, -100 = all killed)
- TEST SETTINGS: 10 µM
The panel holds about 83,000 compounds, 20% with a hit somewhere; the sample as a whole holds those more often.
Quick note: give the figure in %, leave out the unit.

Here are 4 compounds together with their reported answers.
N#Cc1c(NC(=O)c2ccc(C(F)(F)F)cc2)sc2c1CCC(=O)C2 : -54.2
O=c1cc(-c2ccccc2)oc2cc(OCCCCNCc3ccccc3)cc(O)c12 : -92.6
O=C1N/C(=N\c2nccs2)S/C1=C\c1cccs1 : 28.9
COC1=C[C@@]23CCC(=O)N2CCc2cc4c(cc2[C@H]3[C@H]1OC(=O)C(C)(C)O)OCO4 : 102

Query string: Please look up its growth: COc1ccc(CN2[C@H](C(=O)NCCCCCCC(=O)NO)Cc3c([nH]c4ccccc34)[C@H]2C2CC2)cc1
Result string: 1.45

* * *

- System: 786-0 renal
- EXPERIMENT NOTES: NCI-60 one-dose screen, 48 h
- TEST SETTINGS: 10 µM
About 83,000 compounds went through this panel and 20% of them were active in at least one assay; those are over-represented in the sample as a whole. Active and inactive are the calls of the source. The calls were made as follows: active = growth percent below 10; inactive = the rest.
// classify into active, inactive

Query string: Record lookup: outcome of this test for CS(=O)(=O)Nc1ccc(-c2ccc3c(c2)ncn3-c2ccc(NC(=O)Nc3ccc(Br)cc3)cc2)cc1 ?
Result string: active

Query string: Record lookup: outcome of this test for C=C1CCC2C3(C)COC(c4c(F)cccc4F)OC3CCC2(C)C1CC(O)C1=CCOC1=O (centres undefined) ?
Result string: inactive

Query string: Record lookup: outcome of this test for Cc1ccc(/C(N)=N/c2sc(-c3ccccc3)nc2-c2ccccc2)cc1 ?
Result string: inactive

Query string: Record lookup: outcome of this test for COc1cc2c3c(n(CCCNCCO)c(=O)c2cc1OC)-c1nc2c(cc1C3=O)OCO2 ?
Result string: active

Query string: Record lookup: outcome of this test for COc1ccc(-c2ccc(SCC(=O)Nc3ccc(C#N)cc3)nn2)cc1 ?
Result string: inactive

Query string: Record lookup: outcome of this test for C=C1CC[C@H](C(=C)C)[C@H]2C=C(C)C(=O)C3=C(C(=O)[C@@](C)(O)C3)[C@H]12 ?
Result string: active

Query string: Record lookup: outcome of this test for O=C1Nc2cc(Cl)ccc2/C1=C/c1ccc(OCc2ccc(Br)cc2F)cc1 ?
Result string: active

Query string: Record lookup: outcome of this test for COC(=O)CC1CC1C1Cc2c(nc(N(C)S(C)(=O)=O)nc2C(C)C)-c2ccc(F)cc21 (centres undefined) ?
Result string: inactive

Query string: Record lookup: outcome of this test for CCCn1c(=O)c2[nH]c(-c3ccc(OCc4nc5ccc(C(F)(F)F)cc5[nH]4)cc3)nc2n(CCC)c1=O ?
Result string: inactive

* * *

- System: A549/ATCC NSCLC
- EXPERIMENT NOTES: NCI-60 one-dose screen, 48 h
- TEST SETTINGS: 10 µM
About 83,000 compounds went through this panel and 20% of them were active in at least one assay; those are over-represented in the sample as a whole. Calls of active or inactive are those of the source. The calls were made as follows: active = growth percent below 10; inactive = the rest.
// classify into Yes (active), No (inactive)

C=CC(=O)Nc1ccc(C(=O)/C=C/c2ccc(N(C)CCF)cc2)c(O)c1 : Yes
Cc1ccc2nc(COc3ccc(C(=O)NNC(=S)NCCc4ccccc4)cc3)[nH]c2c1 : No
CCCn1c(=O)c2[nH]c(-c3ccc(OCc4nc5ccc(C(F)(F)F)cc5[nH]4)cc3)nc2n(CCC)c1=O : No
C=C[C@@]12CN3CC[C@]1(O)[C@@](C(=O)OC)(CO2)c1[nH]c2ccccc2c1C3 : No
COc1cc(/C=C/C(=O)c2ccc(NC(=O)CN3C(=O)NC(C)(c4ccccc4)C3=O)cc2)cc(OC)c1OC (centres undefined) : No
COc1ccccc1C(=O)NNC(=O)CSc1nc2c(c(=O)[nH]1)CCCC2 : No
COc1ccc2ncc(C#Cc3cncc(C(=O)Nc4ccc(CN5CCN(C)CC5)c(C(F)(F)F)c4)c3)n2n1 : Yes
Nc1nc(Nc2ccc(Cl)cc2)n(Cc2cccc(Br)c2)n1 : Yes

Query string: Record lookup: outcome of this test for COc1ccc(CCN2C(=O)/C(=C/c3csc(C#N)n3)SC2=S)cc1 ?
Result string: No

Query string: Record lookup: outcome of this test for CN1CCc2c(sc3ncnc(N/N=C/c4cn(-c5ccccc5)nc4-c4ccc(Cl)cc4)c23)C1 ?
Result string: No

Query string: Record lookup: outcome of this test for COc1ccc(-c2nc(S(=O)(=O)c3ccc(C)cc3)c(S(C)(=O)=O)o2)cc1 ?
Result string: No

Query string: Record lookup: outcome of this test for C/C(=C\c1ccc(O)cc1O)c1ccc2ccc(O)cc2[o+]1 ?
Result string: No

Query string: Record lookup: outcome of this test for Nc1n[nH]c2cccc(C#Cc3cccc(NC(=O)Nc4cc(C(F)(F)F)cc(C(F)(F)F)c4)c3)c12 ?
Result string: Yes

Query string: Record lookup: outcome of this test for O=C(NCCCCCCCCCC[P+](c1ccccc1)(c1ccccc1)c1ccccc1)c1ccc(-n2nc(-c3ccccc3O)nc2-c2ccccc2O)cc1 ?
Result string: Yes

Query string: Record lookup: outcome of this test for CC1=N/C(=C\c2ccc(N(C)C)cc2)C(=O)N1CCc1ccc(S(N)(=O)=O)cc1 ?
Result string: No

Query string: Record lookup: outcome of this test for c1ccc(C(=C(c2ccc(OCCN3CCCCC3)cc2)c2ccc(OCCN3CCCCC3)cc2)C2CCCC2)cc1 ?
Result string: Yes

Query string: Record lookup: outcome of this test for C=C1CCC2C3(C)COC(c4c(F)cccc4F)OC3CCC2(C)C1CC(O)C1=CCOC1=O (centres undefined) ?
Result string: No

Query string: Record lookup: outcome of this test for Cc1noc2c(Cc3ccc([N+](=O)[O-])cc3)nn(CC(=O)N/N=C/c3ccc(Br)cc3)c(=O)c12 ?
Result string: No

Query string: Record lookup: outcome of this test for O=C1NC(=NC23CC4CC(CC(C4)C2)C3)N/C1=C\c1ccc2ncoc2c1 ?
Result string: No

* * *

- System: NCI-H226 lung
- EXPERIMENT NOTES: NCI-60 one-dose screen, 48 h (100 = growth as untreated, 0 = no growth, -100 = all killed)
- TEST SETTINGS: 10 µM
- Experimental: Growth inhibition of the NCI-H226 human Non-Small Cell Lung tumor cell line is measured as a screen for anti-cancer activity. Cells are grown in 96 well plates and exposed to the test compound for 48 hours. Compounds are tested at a single concentration, which is 10^-5 M for most compounds. The reported endpoint is percent growth (GI% or GIPRCNT), where numbers from 0 - 100% represent growth inhibition, and numbers from -100% - 0 represent cell death. […]
The panel holds about 83,000 compounds, 20% with a hit somewhere; the sample as a whole holds those more often.
MEASURED PARAMETER: growth (%)
Quick note: give the figure in %, leave out the unit.

Here are 5 molecules together with their reported answers.
CN1CCN(Cc2ccc(C(=O)Nc3cccc(Nc4ccc5cc(O)ccc5n4)c3)cc2C(F)(F)F)CC1 : 26.5
O=C(Nc1ccc(OCC(=O)c2ccccc2)cc1)Nc1ccc(Cl)c(C(F)(F)F)c1 : 8.87
COC[C@@H](CC(C)C)N=C1N/C(=C\c2ccc3ncsc3c2)C(=O)N1C : 11.4
O=C(Nc1ccc(I)cc1F)c1cc(-c2ccc(F)cc2F)ccc1O : -7.15
C/C(=C\CSc1ccccc1C(=O)O)CCCC(C)CCCC(C)CCCC(C)C (stereo not drawn) : 77.5

Query string: Please look up its growth: COc1ccc2nc(Nc3cccc(NC(=O)c4ccc(CN5CCN(C)CC5)c(C(F)(F)F)c4)c3)ccc2c1
Result string: -46.9

Query string: Please look up its growth: Cc1ccc(-c2nc(Nc3ccc(C)c(S(N)(=O)=O)c3)c3ccccc3n2)cc1
Result string: 84.1

Query string: Please look up its growth: NS(=O)(=O)c1ccc(NC(=O)CSc2ccc(-c3ccc(Cl)cc3)nn2)c(Br)c1
Result string: -5.33

Query string: Please look up its growth: CC1(C)[C@@H](NCO)CC[C@]2(C)[C@H]3C(=O)C=C4[C@@H]5C[C@](C)(CO)CC[C@]5(C)CC[C@@]4(C)[C@]3(C)CC[C@@H]12
Result string: 68

Query string: Please look up its growth: O=C(CSc1nnc(-c2c[nH]c3ccccc23)n1-c1ccccc1)Nc1ccc(C(=O)/C=C/c2ccccc2Cl)cc1
Result string: 75.6

Query string: Please look up its growth: COc1cccc(/C=N/NC(=O)c2ccc3nc(-c4ccc(Cl)cc4)[nH]c3c2)c1O
Result string: -85.8

Query string: Please look up its growth: O=c1nc(-c2ccccc2)cc(-c2cc3ccccc3nc2Cl)[nH]1
Result string: 35.6

Query string: Please look up its growth: CN1CCN(Cc2ccc(C(=O)Nc3cccc(Nc4ccc5c(O)cccc5n4)c3)cc2C(F)(F)F)CC1
Result string: 41.3

Query string: Please look up its growth: CN(C)CCNC(=O)OCCCCOc1cc(O)c2c(=O)cc(-c3ccccc3)oc2c1
Result string: 12.1

Query string: Please look up its growth: COc1cnc2c(c1)C(=O)c1c-2n(CCCNC(C)C)c(=O)c2cc(OC)c(OC)cc12
Result string: 41.4
